Tested Target: recombinant IRAP (Homo sapiens)
Construct: expressed in transfected cells; host or cells: HEK 293T
Assay Name: IRAP enzymatic assay (hydrolysis of Leu-MCA)
Format: biochemical
Protocol Conditions: Table 2-5; calculated from IC50, substrate Leu-MCA
Measured Parameter: pKi
Would you please state pKi, meaning minus log10 of the concentration in mol/L, as a bare number?

Example entries begin here.
[
  {
    "Molecule": "CC(=O)C1=C(C)OC(N)=C(C#N)C1c1cccc(C(=O)O)c1 (centres unmarked) [Compound 15b]",
    "Tested Target": "recombinant IRAP (Homo sapiens)",
    "pKi": 5.41
  },
  {
    "Molecule": "COc1cc(C2C(C#N)=C(N)OC(C)=C2C(C)=O)ccc1O (centres unmarked) [Compound 15c]",
    "Tested Target": "recombinant IRAP (Homo sapiens)",
    "pKi": 4.78
  }
]

Exercise: Name the recorded pKi of CC(=O)C1=C(C)OC(N)=C(C#N)C1c1ccc2ccccc2n1 (centres unmarked) [Compound 15i] , assay system recombinant IRAP (Homo sapiens).
Solution: 5.00

Exercise: Report pKi from recombinant IRAP (Homo sapiens) testing of CC(=O)C1=C(C)OC(N)=C(C#N)C1c1ccc(C#N)cc1 (centres unmarked) [Compound 15d]
Solution: 4.23

Exercise: Under recombinant IRAP (Homo sapiens): report pKi of CC(=O)C1=C(C)OC(N)=C(C#N)C1c1ccc(C(=O)O)cc1 (centres unmarked) [Compound 15a] .
Solution: 5.74

###

Here the recorded IC50 is given for each entry.
Tested Target: recombinant IRAP (Homo sapiens, UniProt Q9UIQ6)
Construct: expressed in transfected cells; host or cells: HEK 293T
Sequence (Q9UIQ6 whole entry): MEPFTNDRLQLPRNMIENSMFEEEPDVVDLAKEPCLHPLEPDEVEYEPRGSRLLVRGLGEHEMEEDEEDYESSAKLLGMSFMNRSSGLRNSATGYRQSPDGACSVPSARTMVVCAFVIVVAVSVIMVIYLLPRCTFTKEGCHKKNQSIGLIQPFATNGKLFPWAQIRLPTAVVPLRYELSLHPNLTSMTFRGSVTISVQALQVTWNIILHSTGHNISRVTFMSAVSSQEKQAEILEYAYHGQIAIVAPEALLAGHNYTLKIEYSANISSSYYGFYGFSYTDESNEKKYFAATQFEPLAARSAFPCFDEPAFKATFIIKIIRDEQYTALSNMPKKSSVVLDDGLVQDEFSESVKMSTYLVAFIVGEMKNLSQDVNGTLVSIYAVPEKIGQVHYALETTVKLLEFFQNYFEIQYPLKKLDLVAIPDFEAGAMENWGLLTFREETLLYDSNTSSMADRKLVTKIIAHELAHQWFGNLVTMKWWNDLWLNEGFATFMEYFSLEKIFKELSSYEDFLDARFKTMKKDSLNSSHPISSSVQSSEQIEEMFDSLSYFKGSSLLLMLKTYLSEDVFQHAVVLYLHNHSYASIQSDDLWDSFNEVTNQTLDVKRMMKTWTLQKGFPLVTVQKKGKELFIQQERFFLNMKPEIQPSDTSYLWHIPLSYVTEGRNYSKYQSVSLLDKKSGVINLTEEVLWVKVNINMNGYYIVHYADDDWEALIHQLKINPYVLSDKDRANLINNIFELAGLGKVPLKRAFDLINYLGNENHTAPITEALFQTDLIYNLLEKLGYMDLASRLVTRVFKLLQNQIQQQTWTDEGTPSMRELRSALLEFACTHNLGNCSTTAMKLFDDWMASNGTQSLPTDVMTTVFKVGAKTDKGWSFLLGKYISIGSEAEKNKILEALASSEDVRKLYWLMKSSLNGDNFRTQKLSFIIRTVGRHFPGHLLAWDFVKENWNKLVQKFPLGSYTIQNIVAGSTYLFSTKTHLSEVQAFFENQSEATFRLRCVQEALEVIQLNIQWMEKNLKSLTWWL
Assay Name: IRAP enzymatic assay (hydrolysis of Leu-MCA)
Format: biochemical
Protocol Conditions: Table 2-4; substrate Leu-MCA; read-out: IC50

Consider the worked cases shown below.
[
  {
    "Molecule": "COC(=O)c1ccc(C2C(C#N)=C(N)OC(C)=C2C(=O)OCc2ccccc2)cc1 (stereo not shown) [Compound 14c]",
    "Tested Target": "recombinant IRAP (Homo sapiens, UniProt Q9UIQ6)",
    "IC50": "10 to 100 µM"
  },
  {
    "Molecule": "CC1=C(C(=O)OCc2ccccc2)C(c2ccc(C(=O)O)cc2)C(C#N)=C(N)O1 (stereo not shown) [Compound 14b]",
    "Tested Target": "recombinant IRAP (Homo sapiens, UniProt Q9UIQ6)",
    "IC50": "5 µM"
  }
]

Exercise: Determine its reported IC50: CC1=C(C(=O)OCc2ccccc2)C(c2ccc(C#N)cc2)C(C#N)=C(N)O1 (stereo not shown) [Compound 14d]
Solution: > 100 µM

Exercise: Assign IC50 to the following record: COc1ccc(C2C(C#N)=C(N)OC(C)=C2C(=O)OCc2ccccc2)cc1OC (stereo not shown) [Compound 14a]
Solution: 28 µM

###

Tested Target: recombinant IRAP (Homo sapiens)
Construct: expressed in transfected cells; host or cells: HEK 293T
Assay Name: IRAP enzymatic assay (hydrolysis of Leu-MCA)
Assay type: biochemical
Protocol Conditions: Table 2-3; calculated from IC50, substrate Leu-MCA
// reported Ki per item
Number only, in µM; omit the unit.

[
  {
    "Compound": "COC(=O)C1=C(C)OC(N)=C(C#N)C1c1ccc(O)c(OC)c1 (centres unmarked) [Compound 13d]",
    "Unit Text": "µM",
    "Ki": 8.3
  }
]

Exercise: Indicate its recorded Ki; the compound in question is COC(=O)C1=C(C)OC(N)=C(C#N)C1c1ccc(C(=O)O)cc1 (centres unmarked) [Compound 13b]
Solution: 8.3

###

Tested Target: recombinant IRAP (Homo sapiens)
Construct: expressed in transfected cells; host or cells: HEK 293T
Assay Name: IRAP enzymatic assay (hydrolysis of Leu-MCA)
Format: biochemical
Protocol Conditions: Table 2-5; substrate Leu-MCA; read-out: IC50
Measured Parameter: IC50 (µM)
Give the value in µM but do not write µM after it.

[
  {
    "Molecule": "COc1cc(C2C(C#N)=C(N)OC(C)=C2C(C)=O)ccc1O (centres unmarked) [Compound 15c]",
    "IC50, µM": 28
  }
]

Exercise: Using the record for CC(=O)C1=C(C)OC(N)=C(C#N)C1c1ccc2ccccc2n1 (centres unmarked) [Compound 15i] , state its measured IC50.
Solution: 17

###

# key: entry, value: pKi
Tested Target: recombinant IRAP (Homo sapiens)
Construct: expressed in transfected cells; host or cells: HEK 293T
Assay Name: IRAP enzymatic assay (hydrolysis of Leu-MCA)
Assay type: biochemical
Protocol Conditions: Table 2-1; calculated from IC50, substrate Leu-MCA
For clarity, pKi is expressed as the negative log10 of concentration in mol/L.

[
  {
    "Compound": "CCOC(=O)C1=C(C)OC(N)=C(C#N)C1c1cc(Br)c(O)c(OC)c1 (centres unmarked) [Compound 11a]",
    "Measured Parameter": "pKi",
    "Measured Value": 4.86
  },
  {
    "Compound": "CCOC(=O)C1=C(C)OC(N)=C(C#N)C1c1ccc(O)c(OC)c1 (centres unmarked) [Compound 11b]",
    "Measured Parameter": "pKi",
    "Measured Value": 4.88
  },
  {
    "Compound": "CCOC(=O)C1=C(C)OC(N)=C(C#N)C1c1ccc(O)cc1 (centres unmarked) [Compound 11e]",
    "Measured Parameter": "pKi",
    "Measured Value": 4.21
  },
  {
    "Compound": "CCOC(=O)C1=C(C)OC(N)=C(C#N)C1c1cc(OC)c2c(c1)OCO2 (centres unmarked) [Compound 11h]",
    "Measured Parameter": "pKi",
    "Measured Value": 4.43
  }
]

// below: pKi requested for another compound
Exercise: Input CCOC(=O)C1=C(C)OC(N)=C(C#N)C1c1ccc(C(=O)O)cc1 (centres unmarked) [Compound 11k] , output reported pKi.
Solution: 4.74

###

Tested Target: recombinant IRAP (Homo sapiens)
Construct: expressed in transfected cells; host or cells: HEK 293T
Assay Name: IRAP enzymatic assay (hydrolysis of Leu-MCA)
Type: biochemical
Protocol Conditions: Table 2-2; substrate Leu-MCA; read-out: IC50
Measured Parameter: IC50
Just so you know, I need the unit written after the number.

[
  {
    "Molecule": "CCOC(=O)C1=C(CC)OC(N)=C(C#N)C1c1ccc(O)c(OCC)c1 (centres unmarked) [Compound 12c]",
    "Tested Target": "recombinant IRAP (Homo sapiens)",
    "Measured Parameter": "IC50",
    "Measured Value": "113 µM"
  }
]

Exercise: Indicate its recorded IC50; the molecule in question is CCOC(=O)C1=C(CC)OC(N)=C(C#N)C1c1ccc(O)c(OC)c1 (centres unmarked) [Compound 12a]
Solution: 143 µM

###

Tested Target: recombinant IRAP (Homo sapiens)
Construct: expressed in transfected cells; host or cells: HEK 293T
Assay Name: IRAP enzymatic assay (hydrolysis of Leu-MCA)
Assay type: biochemical
Protocol Conditions: Table 2-2; calculated from IC50, substrate Leu-MCA
Measured Parameter: Ki (µM)
Write it as a number; the unit µM goes unstated.

[
  {
    "Molecule": "CCOC(=O)C1=C(CC)OC(N)=C(C#N)C1c1ccc(O)c(OC)c1 (centres unmarked) [Compound 12a]",
    "Unit Text": "µM",
    "Ki": 85.1
  }
]

Alright, here's another molecule for you.
Exercise: Give the value of Ki reported for the following: CCOC(=O)C1=C(CC)OC(N)=C(C#N)C1c1ccc(O)c(OCC)c1 (centres unmarked) [Compound 12c]
Solution: 67.2

###

Tested Target: recombinant IRAP (Homo sapiens)
Construct: expressed in transfected cells; host or cells: HEK 293T
Assay Name: IRAP enzymatic assay (hydrolysis of Leu-MCA)
Assay type: biochemical
Protocol Conditions: Table 2-3; substrate Leu-MCA; read-out: IC50
Measured Parameter: pIC50
pIC50 is a log-scale quantity: -log10 of the concentration expressed in molar.

[
  {
    "Compound": "COC(=O)C1=C(C)OC(N)=C(C#N)C1c1ccc(O)c(OC)c1 (stereo not drawn) [Compound 13d]",
    "pIC50": 4.85
  }
]

// moving on: another record for pIC50
Exercise: Consider the compound COC(=O)C1=C(C)OC(N)=C(C#N)C1c1ccc(C(=O)O)cc1 (stereo not drawn) [Compound 13b] . State its measured pIC50.
Solution: 4.85

###

The following compounds are shown together with reported Ki values.
Tested Target: recombinant IRAP (Homo sapiens)
Construct: expressed in transfected cells; host or cells: HEK 293T
Assay Name: IRAP enzymatic assay (hydrolysis of Leu-MCA)
Format: biochemical
Protocol Conditions: Table 2-4; calculated from IC50, substrate Leu-MCA
Your answer should be a plain number; it is taken to be in µM.

[
  {
    "Compound": "COc1ccc(C2C(C#N)=C(N)OC(C)=C2C(=O)OCc2ccccc2)cc1OC (centres unmarked) [Compound 14a]",
    "Tested Target": "recombinant IRAP (Homo sapiens)",
    "Unit Text": "µM",
    "Measured Value": 16.7
  }
]

Now for a further compound.
Exercise: Specify reported Ki for the compound shown: CC1=C(C(=O)OCc2ccccc2)C(c2ccc(C(=O)O)cc2)C(C#N)=C(N)O1 (centres unmarked) [Compound 14b]
Solution: 3

All figures here come from patent US11306066B2.
